target: c-Kit(V654A) (Homo sapiens, UniProt P10721, V654A); construct: recombinant human c-Kit, amino acids 544-end containing the V654A mutation; GST (N); assay: c-Kit(V654A) assay (33P-ATP filter binding kinase assay); settings: recombinant human c-Kit aa 544-end V654A, ATP 200 μM
Sequence (P10721 544-976 V654A): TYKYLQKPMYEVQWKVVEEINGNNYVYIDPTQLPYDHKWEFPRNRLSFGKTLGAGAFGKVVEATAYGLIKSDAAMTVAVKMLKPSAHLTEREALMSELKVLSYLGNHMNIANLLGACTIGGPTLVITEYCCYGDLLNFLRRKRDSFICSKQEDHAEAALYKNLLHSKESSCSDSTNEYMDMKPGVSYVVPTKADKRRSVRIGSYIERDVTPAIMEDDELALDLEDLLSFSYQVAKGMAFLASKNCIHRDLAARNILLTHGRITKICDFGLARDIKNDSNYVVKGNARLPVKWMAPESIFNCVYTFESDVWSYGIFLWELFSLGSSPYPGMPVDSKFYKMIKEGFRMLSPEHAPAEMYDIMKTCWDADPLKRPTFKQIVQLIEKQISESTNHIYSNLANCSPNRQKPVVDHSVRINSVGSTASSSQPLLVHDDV
pIC50: −log10 of the molar value.
ASSAY_ENDPOINT: pIC50

1. CN1CCN(c2ccn3c(-c4cc(NCc5ccc(-c6cnn(C)c6)cc5)ncn4)cnc3c2)CC1 [A181] : 7.82
2. CN1CCC(COc2ccn3c(-c4cc(NCc5ccc(-c6cnn(C)n6)cc5)ncn4)cnc3c2)CC1 [A79] : 8.82
3. Cc1nc(-c2ccc(CNc3cc(-c4cnc5cc(OCCCN6CCCC6)ccn45)ncn3)cc2)co1 [A242] : 8.96
4. COc1ccn2c(-c3cc(NCc4ccc(-c5cnn(C6CC6)c5)cc4)ncn3)cnc2c1 [A49] : 8.14

----------
target: GIST430/654 cell line expressing mutated constitutively active cKIT receptor tyrosine kinase (Δ560-576 deletion and V654A point mutation) (Homo sapiens, UniProt P10721, DEL560-576/V654A); construct: endogenous in cells; test: Cellular cKIT autophosphorylation (phospho-Y307-cKIT, Luminex bead assay) in GIST430/654 cells; settings: compounds 45 min, read-out: GIST 430/654 IC50
Sequence (P10721 with tags, fused parts or gaps DEL560-576/V654A): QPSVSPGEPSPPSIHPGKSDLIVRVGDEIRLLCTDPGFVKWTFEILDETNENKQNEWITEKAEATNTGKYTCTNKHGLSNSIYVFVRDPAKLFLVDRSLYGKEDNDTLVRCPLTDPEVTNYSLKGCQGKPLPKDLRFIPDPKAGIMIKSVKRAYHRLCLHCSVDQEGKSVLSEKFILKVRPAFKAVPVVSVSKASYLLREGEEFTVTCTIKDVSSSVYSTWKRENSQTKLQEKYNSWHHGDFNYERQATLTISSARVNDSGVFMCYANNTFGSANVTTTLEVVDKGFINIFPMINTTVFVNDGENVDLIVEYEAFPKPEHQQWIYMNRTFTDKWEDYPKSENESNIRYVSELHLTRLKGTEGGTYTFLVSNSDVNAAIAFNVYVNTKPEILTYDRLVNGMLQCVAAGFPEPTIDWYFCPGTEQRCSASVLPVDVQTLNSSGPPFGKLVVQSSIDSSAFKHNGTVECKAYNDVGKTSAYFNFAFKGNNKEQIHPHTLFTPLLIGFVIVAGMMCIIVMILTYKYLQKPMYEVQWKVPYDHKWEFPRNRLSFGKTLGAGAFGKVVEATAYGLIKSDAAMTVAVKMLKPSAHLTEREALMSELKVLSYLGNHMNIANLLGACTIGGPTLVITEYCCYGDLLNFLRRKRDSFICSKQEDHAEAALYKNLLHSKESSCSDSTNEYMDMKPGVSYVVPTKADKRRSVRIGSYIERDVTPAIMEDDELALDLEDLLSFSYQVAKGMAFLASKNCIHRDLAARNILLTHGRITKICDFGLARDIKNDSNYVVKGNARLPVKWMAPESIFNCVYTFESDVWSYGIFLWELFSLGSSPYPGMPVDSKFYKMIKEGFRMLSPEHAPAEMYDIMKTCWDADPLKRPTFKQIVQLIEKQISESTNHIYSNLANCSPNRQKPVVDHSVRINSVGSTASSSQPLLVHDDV
pIC50: −log10 of the molar value.
// 0 strictly below 7 in pIC50; 1 otherwise

1. Cn1cc(-c2ccc(CNc3cc(-c4cnc5cc(O)ccn45)ncn3)cc2)cn1 [A160] : 0
2. Cn1cc(-c2ccc(CNc3cc(-c4cnc5cc(OCCN6CCn7cnnc7C6)ccn45)ncn3)cc2)cn1 [A203] : 0
3. Cn1ncc(-c2ccc(CNc3cc(-c4cnc5cc(N6CCC(CCO)C6)ccn45)ncn3)cc2)n1 (stereo not drawn) [A179] : 1
4. COc1ccn2c(-c3cc(NCc4ccc(-c5cccnc5)cc4)ncn3)cnc2c1 [A6] : 0
5. CN(C)CCCOc1ccn2c(-c3cc(NCc4ccc(-c5cnn(C)n5)cc4)ncn3)cnc2c1 [A135] : 0
6. COc1ccn2c(-c3cc(NCc4ccc(-c5cn(CC(C)(C)O)nc5N)cc4)ncn3)cnc2c1 [A229] : 0
7. CN1CCC(COc2ccn3c(-c4cc(NCc5ccc(-c6cnn(C)c6)cc5)ncn4)cnc3c2)CC1 [A62] : 1
8. COc1ccn2c(-c3cc(NCc4ccc(-c5nnn(C)n5)cc4)ncn3)cnc2c1 [A37] : 0
9. Cn1cc(-c2ccc(CNc3cc(-c4cnc5cc(OCCCN6CCOCC6)ccn45)ncn3)cc2)cn1 [A74] : 1
10. Cn1cc(-c2ccc(CNc3cc(-c4cnc5cc(OCCCN6CCCC6=O)ccn45)ncn3)cc2)cn1 [A145] : 0
11. Cn1cc(-c2ccc(CNc3cc(-c4cnc5cc(NC(C)(C)CO)ccn45)ncn3)cc2)cn1 [A163] : 0

----------
biological target: c-Kit(V654A) (Homo sapiens, UniProt P10721, V654A); construct: recombinant human c-Kit, amino acids 544-end containing the V654A mutation; GST (N); experiment: c-Kit(V654A) assay (33P-ATP filter binding kinase assay); settings: recombinant human c-Kit aa 544-end V654A, ATP 200 μM
pIC50: −log10 of the molar value.
ASSAY_ENDPOINT: pIC50

1) Cc1ccn2c(-c3cc(NCc4ccc(-c5cnn(C)c5)cc4)ncn3)cnc2c1 : 8.11
2) Cn1cc(-c2ccc(CNc3cc(-c4cnc5cc(OCCN6CCOCC6=O)ccn45)ncn3)cc2)cn1 : 8.09
3) Cn1cc(-c2ccc(CNc3cc(-c4cnc5cc(OCCCN6CCOCC6=O)ccn45)ncn3)cc2)cn1 : 7.92
4) COc1ccn2c(-c3cc(NCc4ccc(-c5cnc(CO)n5C)cc4)ncn3)cnc2c1 : 6.59
5) Cn1ncc(-c2ccc(CNc3cc(-c4cnc5cc(OCCCN6CCOCC6)ccn45)ncn3)cc2)n1 : 8.59
6) Cn1cc(-c2ccc(CNc3cc(-c4cnc5cc(OCCN6CCC(F)(F)C6)ccn45)ncn3)cc2)cn1 : 7.85
7) Cn1ncc(-c2ccc(CNc3cc(-c4cnc5cc(OCC6CCN(C7COC7)CC6)ccn45)ncn3)cc2)n1 : 8.11
8) Cn1ncc(-c2ccc(CNc3cc(-c4cnc5cc(OCC(C)(C)N6CCOCC6)ccn45)ncn3)cc2)n1 : 8.12
9) CN1CCC(Oc2ccn3c(-c4cc(NCc5ccc(-c6cnn(C)c6)cc5)ncn4)cnc3c2)CC1 : 7.92
10) Cn1ncc(-c2ccc(CNc3cc(-c4cnc5cc(OCCCO)ccn45)ncn3)cc2)n1 : 8.34
11) Cn1ccc(-c2ccc(CNc3cc(-c4cnc5ccccn45)ncn3)cc2)n1 : 8.26
12) CO[C@@H]1CCN(c2ccc(CNc3cc(-c4cnc5ccccn45)ncn3)cn2)C1 : 8.15
13) Cn1cc(-c2ccc(CNc3cc(-c4cnc5cc(CCN6CCN(C7COC7)CC6)ccn45)ncn3)cc2)cn1 : 7.48
14) Cn1cc(-c2ccc(CNc3cc(-c4cnc5cc(OCCN6CCCC(F)(F)C6)ccn45)ncn3)cc2)cn1 : 8.00
15) Cn1cc(-c2ccc(CNc3cc(-c4cnc5cc(N6CCOCC6)ccn45)ncn3)cc2)cn1 : 8.11
16) Cc1cc(N2CCCC2)ncc1CNc1cc(-c2cnc3ccccn23)ncn1 : 6.74
17) COCCOc1ccn2c(-c3cc(NCc4ccc(-c5cnn6c5CCC6)cc4)ncn3)cnc2c1 : 8.01
18) Cn1cc(-c2ccc(COc3cc(-c4cnc5cc(OCCN6CCCC6)ccn45)ncn3)cc2)cn1 : 7.96
19) Cn1cc(-c2ccc(CNc3cc(-c4cnc5cc(OCCCN6CCC(F)(F)C6)ccn45)ncn3)cc2)cn1 : 7.66
20) COCCn1cc(-c2ccc(CNc3cc(-c4cnc5cc(OC)ccn45)ncn3)cc2)cn1 : 8.03
21) Cn1ncc(-c2ccc(CNc3cc(-c4cnc5cc(OCCCN6CCC6)ccn45)ncn3)cc2)n1 : 8.54
22) Cn1cc(-c2ccc(CNc3cc(-c4cnc5cc(OC6CCOC6)ccn45)ncn3)cc2)cn1 (stereo not shown) : 7.96

----------
target: GIST430 cell line expressing constitutive active cKIT receptor tyrosine kinase (Δ560-576 deletion) (Homo sapiens, UniProt P10721, DEL560-576); construct: endogenous in cells; host or cells: GIST430 cells; assay: Cellular cKIT autophosphorylation (phospho-Y307-cKIT, Luminex bead assay) in GIST430 cells; assay type: cell-based; conditions: cKIT autophosphorylation, GIST430 cells, compounds 45 min; read-out: GIST 430 IC50
Sequence (P10721 with tags, fused parts or gaps DEL560-576): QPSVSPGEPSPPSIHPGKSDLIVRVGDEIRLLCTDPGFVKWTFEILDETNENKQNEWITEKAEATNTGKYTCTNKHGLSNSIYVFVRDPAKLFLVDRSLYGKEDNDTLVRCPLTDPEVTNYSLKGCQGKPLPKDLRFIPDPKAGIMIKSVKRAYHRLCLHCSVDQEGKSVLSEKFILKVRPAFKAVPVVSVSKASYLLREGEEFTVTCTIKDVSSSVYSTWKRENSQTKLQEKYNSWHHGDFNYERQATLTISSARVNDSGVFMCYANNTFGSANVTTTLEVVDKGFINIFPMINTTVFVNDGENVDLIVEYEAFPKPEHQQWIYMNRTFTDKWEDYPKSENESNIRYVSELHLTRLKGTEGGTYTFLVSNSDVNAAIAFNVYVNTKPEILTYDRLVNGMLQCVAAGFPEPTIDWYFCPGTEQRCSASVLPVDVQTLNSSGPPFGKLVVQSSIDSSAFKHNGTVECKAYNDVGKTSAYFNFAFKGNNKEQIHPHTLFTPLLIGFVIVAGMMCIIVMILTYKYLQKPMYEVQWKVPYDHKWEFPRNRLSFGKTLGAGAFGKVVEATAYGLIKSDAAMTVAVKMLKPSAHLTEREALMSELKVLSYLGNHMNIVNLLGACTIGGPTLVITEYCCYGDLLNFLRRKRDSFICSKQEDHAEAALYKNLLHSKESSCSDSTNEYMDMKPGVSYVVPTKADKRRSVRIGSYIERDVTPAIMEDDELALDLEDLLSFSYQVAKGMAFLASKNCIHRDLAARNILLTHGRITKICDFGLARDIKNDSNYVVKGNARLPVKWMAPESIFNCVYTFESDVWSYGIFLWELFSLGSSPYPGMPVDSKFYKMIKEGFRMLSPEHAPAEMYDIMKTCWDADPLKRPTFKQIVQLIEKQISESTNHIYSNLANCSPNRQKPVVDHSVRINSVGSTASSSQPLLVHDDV
ASSAY_ENDPOINT: IC50 (nM)

1) F[C@H]1CCN(c2ccc(CNc3cc(-c4cnc5ccccn45)ncn3)cn2)C1 [A148] : 7.3
2) CN1CCC(COc2ccn3c(-c4cc(NCc5ccc(-c6cnn(C)c6)cc5)ncn4)cnc3c2)CC1 [A62] : 3.7
3) Cc1cc(N2CC[C@H](F)C2)ncc1CNc1cc(-c2cnc3ccccn23)ncn1 [A155] : 51
4) COc1ccn2c(-c3cc(NCc4ccc(-c5coc(C)n5)cc4)ncn3)cnc2c1 [A42] : 1.8

----------
biological target: GIST430/654 cell line expressing mutated constitutively active cKIT receptor tyrosine kinase (Δ560-576 deletion and V654A point mutation) (Homo sapiens, UniProt P10721, DEL560-576/V654A); construct: endogenous in cells; test: Cellular cKIT autophosphorylation (phospho-Y307-cKIT, Luminex bead assay) in GIST430/654 cells; settings: compounds 45 min, read-out: GIST 430/654 IC50
ASSAY_ENDPOINT: IC50

1. CO[C@@H]1CCN(c2ccc(CNc3cc(-c4cnc5ccccn45)ncn3)cn2)C1 : 340 nM
2. Cn1ncc(-c2ccc(CNc3cc(-c4cnc5cc(OCCCO)ccn45)ncn3)cc2)n1 : 52 nM
3. Cn1cc(-c2ccc(CNc3cc(-c4cnc5cc(OCCC6CCN(C7COC7)C6)ccn45)ncn3)cc2)cn1 (centres unmarked) : 56 nM
4. Cn1cc(-c2ccc(CNc3cc(-c4cnc5cc(OCCC(C)(C)N)ccn45)ncn3)cc2)cn1 : 190 nM
5. Cn1ncc(-c2ccc(CNc3cc(-c4cnc5cc(OCCCNC6COC6)ccn45)ncn3)cc2)n1 : 33 nM
6. Cn1cc(-c2ccc(CNc3cc(-c4cnc5cc(OCc6nccn6C)ccn45)ncn3)cc2)cn1 : 620 nM
7. Fc1cc(N2CCCC2)ncc1CNc1cc(-c2cnc3ccccn23)ncn1 : 370 nM
8. COc1ccn2c(-c3cc(NCc4ccc(-c5noc(C)n5)cc4)ncn3)cnc2c1 : 130 nM
9. CN1CCN(CCCOc2ccn3c(-c4cc(NCc5ccc(-c6cnn(C)n6)cc5)ncn4)cnc3c2)CC1 : 31 nM
10. Cn1cc(-c2ccc(CNc3cc(-c4cnc5cc(OCCN6CC(F)(F)C6)ccn45)ncn3)cc2)cn1 : 160 nM
11. Cn1cc(-c2ccc(CNc3cc(-c4cnc5cc(OCC(C)(C)N6CCOCC6)ccn45)ncn3)cc2)cn1 : 120 nM
12. Cn1cc(-c2ccc(CNc3cc(-c4cnc5cc(OCCOCCO)ccn45)ncn3)cc2)cn1 : 70 nM
13. CN1CCO[C@@H](COc2ccn3c(-c4cc(NCc5ccc(-c6cnn(C)n6)cc5)ncn4)cnc3c2)C1 : 34 nM
14. CC(Nc1cc(-c2cnc3cc(OCCCN4CCCC4)ccn23)ncn1)c1ccc(-c2cnn(C)c2)cc1 (centres unmarked) : 410 nM
15. Cc1cc(N2CC[C@H](F)C2)ncc1CNc1cc(-c2cnc3ccccn23)ncn1 : 30000 nM
16. Cn1cc(-c2ccc(CNc3cc(-c4cnc5cc(Cl)ccn45)ncn3)cc2)cn1 : 270 nM
17. CN1CC(COc2ccn3c(-c4cc(NCc5ccc(-c6cnn(C)c6)cc5)ncn4)cnc3c2)C1 : 61 nM
